TEST_NAME: chemical genetic growth profiling, strain panel (AID 1159580);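 also: tested at 20 µM; growth read once vehicle control cultures reached saturation at 30 °C; 1 = growth at the plate median or of vehicle wells; lower values mean less growth of the strain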
TEST_CONDITIONS: S. cerevisiae deletion strains, growth OD, locus YGR078C, strain PAC10, active compounds read low
Hit rate of the full screen: of about 5,500 compounds, about 2,000 (36%) were called active. Inconclusive results (about 18%) are left out. Some of the results follow.
normalized growth for assorted compounds

COMPOUND	normalized growth
CCC[C@H](N[C@@H](C)C(=O)N1[C@H](C(=O)O)C[C@@H]2CCCC[C@@H]21)C(=O)OCC	1.02
Cc1nn(C)c(C)c1[N+](=O)[O-]	0.999
CCOC(=O)N=Nc1c(O)[nH]c2ccc(F)cc12	1

* * *

TEST_NAME: chemical genetic growth profiling, strain panel (AID 1159580);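 also: tested at 20 µM; growth read once vehicle control cultures reached saturation at 30 °C; 1 = growth at the plate median or of vehicle wells; lower values mean less growth of the strain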
TEST_CONDITIONS: S. cerevisiae deletion strains, growth OD, locus YGR078C, strain PAC10, active compounds read low
The campaign covered roughly 5,500 compounds. About 2,000 (36%) were called active. Roughly 18% stayed inconclusive and do not appear here. Some of the results follow.
normalized growth for assorted molecules

COMPOUND	normalized growth
O=C(c1c(F)cccc1F)N1CCN(C(=O)c2c(F)cccc2F)CC1	1.02
O=[N+]([O-])c1ccc(O[C@@H]2O[C@H](CO)[C@@H](O)[C@H](O)[C@H]2F)c([N+](=O)[O-])c1	1.01
O=C(O)c1cc2cc(F)ccc2[nH]1	0.984
COc1ccccc1-c1coc2cc(O)ccc2c1=O	0.995
O=[N+]([O-])c1ccc(S(=O)(=O)N2CCCCC2)cc1	1
Cc1nc(N)ncc1Sc1ccccc1	0.986

* * *

normalized growth for assorted molecules
TEST_NAME: chemical genetic growth profiling, strain panel (AID 1159580);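 also: tested at 20 µM; growth read once vehicle control cultures reached saturation at 30 °C; 1 = growth at the plate median or of vehicle wells; lower values mean less growth of the strain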
TEST_CONDITIONS: S. cerevisiae deletion strains, growth OD, locus YLR058C, strain SHM2, active compounds read low
About 2,000 (36%) of roughly 5,500 compounds were called active. Inconclusive results (about 18%) are left out. The list shows a part of the results.

MOLECULE	normalized growth
C[C@H]1COc2c(N3CCN(C)CC3)c(F)cc3c(=O)c(C(=O)O)cn1c23	1.01
COc1ccc(-c2coc3cc(O)ccc3c2=O)c(OC)c1	1.01
CCn1cc(C(=O)O)c(=O)c2cc(F)c(N3CCNCC3)nc21	1.02
NCCC(O)C(=O)NC1CC(N)C(OC2OC(CN)C(O)C(O)C2N)C(OC2OC(CO)C(O)C2O)C1O (centres undefined)	0.986
COc1cc2nc(N(C)CCCNC(=O)C3CCCO3)nc(N)c2cc1OC (centres undefined)	1.02
CCN(CC)C(=O)N1CCN(C)CC1	1.02
COC(=O)[C@@H]1OC(=O)C2OC23[C@@]1(C)CCC1[C@]2(C)C(C[C@H](O)[C@]13C)C(C)(C)[C@H](OC(C)=O)C[C@@H]2OC(C)=O (some centres undefined)	1.02
c1ccc2c(c1)CCCC2C1=NCCN1 (centres undefined)	1.01
CCn1cc(C(=O)O)c(=O)c2cc(F)c(N3CCNC(C)C3)c(F)c21 (centres undefined)	0.995
COc1ccccc1-c1coc2cc(O)ccc2c1=O	1.01
NCCc1cnc[nH]1	1.01
CC(=O)S[C@@H]1CC2=CC(=O)CC[C@]2(C)[C@H]2CC[C@@]3(C)[C@@H](CC[C@@]34CCC(=O)O4)C12 (some centres undefined)	1
CC(=O)Oc1cc(OC(C)=O)c2c(c1)O[C@H](c1ccc(OC(C)=O)c(OC(C)=O)c1)[C@@H](OC(C)=O)C2	1
O=c1c(-c2ccc(O)cc2)coc2cc(O)ccc12	1
